- measuredTarget: Prostaglandin G/H synthase 1 (Homo sapiens)
- procedureDetails: Inhibition of COX1 (unknown origin) assessed as PGH2 production at 10 uM by measuring […] level by enzyme immunoassay
inhibition values by entry
measure: inhibition (%)

{"columns": ["lineNotation", "limitQualifier", "observedMeasurement"],
 "data": [
  ["CC(=O)O[C@]1(C)C[C@@H](O)[C@]2(O)C=CO[C@@H](O[C@@H]3O[C@H](CO)[C@@H](O)[C@H](O)[C@H]3O)[C@@H]21", "=", 38.5],
  ["COc1ccc(C(=O)O[C@@H]2C=C(CO)[C@H]3[C@H](O[C@@H]4O[C@H](CO)[C@@H](O)[C@H](O)[C@H]4O)OC=C[C@H]32)cc1", "=", 35],
  ["COC(=O)C1=CO[C@@H](O[C@@H]2O[C@H](CO)[C@@H](O)[C@H](O)[C@H]2O)[C@H]2[C@@H]1CC[C@]2(C)O", "<", 30],
  ["O=C(OCC1=C[C@@H](O)[C@@H]2C=CO[C@@H](O[C@@H]3O[C@H](CO)[C@@H](O)[C@H](O)[C@H]3O)[C@H]12)c1ccc(O)cc1", "=", 40.3],
  ["O=C(O)C1=CO[C@@H](O[C@@H]2O[C@H](CO)[C@@H](O)[C@H](O)[C@H]2O)[C@@H]2C(CO)=CC[C@H]12", "=", 55.7],
  ["COC(=O)C1=CO[C@@H](O[C@@H]2O[C@H](CO)[C@@H](O)[C@H](O)[C@H]2O)[C@@H]2[C@@H](C)[C@@H](O)C[C@H]12", "=", 51.2],
  ["COC(=O)C1=CO[C@@H](O[C@@H]2O[C@H](CO)[C@@H](O)[C@H](O)[C@H]2O)[C@@H]2[C@H](C)[C@@H](O)C[C@H]12", "=", 33.4],
  ["C[C@@H]1[C@H]2[C@H](O[C@@H]3O[C@H](CO)[C@@H](O)[C@H](O)[C@H]3O)OC=C(C(=O)O)[C@H]2C[C@@H]1O", "=", 36.9],
  ["C=C1[C@H]2[C@H](O[C@@H]3O[C@H](CO)[C@@H](O)[C@H](O)[C@H]3O)OC=C(C(=O)O)[C@H]2C[C@@H]1O", "=", 51.7],
  ["OCC1=C[C@@H](O)[C@@H]2C=CO[C@@H](O[C@@H]3O[C@H](CO)[C@@H](O)[C@H](O)[C@H]3O)[C@H]12", "=", 49.9],
  ["C[C@@H]1CC[C@@H]2C(C=O)=CO[C@@H](O[C@@H]3O[C@H](CO)[C@@H](O)[C@H](O)[C@H]3O)[C@H]12", "=", 43],
  ["COc1ccc(C(=O)O[C@H]2[C@@H]3C=CO[C@@H](O[C@@H]4O[C@H](CO)[C@@H](O)[C@H](O)[C@H]4O)[C@@H]3[C@@]3(CO)O[C@@H]23)cc1OC", "=", 38.2],
  ["COC(=O)C1=CO[C@@H](O[C@@H]2O[C@H](CO)[C@@H](O)[C@H](O)[C@H]2O)[C@@H]2[C@H](C)C[C@@H](O)[C@]12O", "=", 33.2],
  ["C[C@@H]1CC[C@]2(O)C(C=O)=CO[C@@H](O[C@@H]3O[C@H](CO)[C@@H](O)[C@H](O)[C@H]3O)[C@H]12", "=", 36.3],
  ["OCC1=CC[C@@H]2C=CO[C@@H](O[C@@H]3O[C@H](CO)[C@@H](O)[C@H](O)[C@H]3O)[C@H]12", "=", 52.7],
  ["OC[C@H]1O[C@@H](O[C@@H]2OC=C[C@H]3[C@H](O)[C@@H]4O[C@]4(CO)[C@@H]23)[C@H](O)[C@@H](O)[C@@H]1O", "=", 44.2]
]}
